# Tested on: 966289-007-R4-J1-PDC complex spheroid viability;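 note: spheroids exposed to agents for one week before readout; percent viability relative to DMSO vehicle control wells as 100%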
# assay: Anticancer human tumor 966289-007-R4-J1-PDC patient-derived pancreatic adenocarcinoma cell line growth inhibition [RAS]
# measurement.setup: second compound 0.316 µM; first compound 0.00316 µM; active compounds read low
Listed here are compounds together with their documented viability, T/C.
Number only, in %; omit the unit.

Study these solved cases before continuing.
{"compound": "Nc1ccn(C2OC(CO)C(O)C2(F)F)c(=O)n1 (stereo unspecified) + C=CC(=O)N1CCN(c2nc(OCC3CCCN3C)nc3c(F)c(-c4nc(N)cc(C)c4C(F)(F)F)c(Cl)cc23)C(C)C1", "unit.spec": "%", "viability, T/C": 93.6}
{"compound": "Nc1ccn(C2OC(CO)C(O)C2(F)F)c(=O)n1 (stereo unspecified) + C#Cc1c(F)ccc2cc(O)cc(-c3ncc4c(N5CC6CCC(C5)N6)nc(OCC56CCCN5CC(F)C6)nc4c3F)c12", "unit.spec": "%", "viability, T/C": 91.6}
{"compound": "O=C(c1ccc(F)c(F)c1Nc1ccc(I)cc1F)N1CC(O)([C@@H]2CCCCN2)C1 + C#Cc1c(F)ccc2cc(O)cc(-c3ncc4c(N5CC6CCC(C5)N6)nc(OCC56CCCN5CC(F)C6)nc4c3F)c12", "unit.spec": "%", "viability, T/C": 76}
{"compound": "CC(C)n1nc(-c2ccc3oc(N)nc3c2)c2c(N)ncnc21 + C=CC(=O)N1CCN(c2nc(OCC3CCCN3C)nc3c(F)c(-c4nc(N)cc(C)c4C(F)(F)F)c(Cl)cc23)C(C)C1", "unit.spec": "%", "viability, T/C": 132}
{"compound": "O=C(c1ccc(F)c(F)c1Nc1ccc(I)cc1F)N1CC(O)([C@@H]2CCCCN2)C1 + C=CC(=O)N1CCN(c2nc(OCC3CCCN3C)nc3c(F)c(-c4nc(N)cc(C)c4C(F)(F)F)c(Cl)cc23)C(C)C1", "unit.spec": "%", "viability, T/C": 84}
{"compound": "CCN1CCN(Cc2ccc(Nc3ncc(F)c(-c4cc(F)c5nc(C)n(C(C)C)c5c4)n3)nc2)CC1 + C=CC(=O)N1CCN(c2nc(OCC3CCCN3C)nc3c(F)c(-c4nc(N)cc(C)c4C(F)(F)F)c(Cl)cc23)C(C)C1", "unit.spec": "%", "viability, T/C": 106}

Request: Any idea what its viability, T/C is? The compound is C=CC(=O)Nc1cc(Nc2nccc(-c3cn(C)c4ccccc34)n2)c(OC)cc1N(C)CCN(C)C + C#Cc1c(F)ccc2cc(O)cc(-c3ncc4c(N5CC6CCC(C5)N6)nc(OCC56CCCN5CC(F)C6)nc4c3F)c12
Result: 108

Request: Any idea what its viability, T/C is? The compound is CC(C)n1nc(-c2ccc3oc(N)nc3c2)c2c(N)ncnc21 + C#Cc1c(F)ccc2cc(O)cc(-c3ncc4c(N5CC6CCC(C5)N6)nc(OCC56CCCN5CC(F)C6)nc4c3F)c12
Result: 114

Request: Any idea what its viability, T/C is? The compound is C=CC(=O)Nc1cc(Nc2nccc(-c3cn(C)c4ccccc34)n2)c(OC)cc1N(C)CCN(C)C + C=CC(=O)N1CCN(c2nc(OCC3CCCN3C)nc3c(F)c(-c4nc(N)cc(C)c4C(F)(F)F)c(Cl)cc23)C(C)C1
Result: 104

Request: Any idea what its viability, T/C is? The compound is CCN1CCN(Cc2ccc(Nc3ncc(F)c(-c4cc(F)c5nc(C)n(C(C)C)c5c4)n3)nc2)CC1 + C#Cc1c(F)ccc2cc(O)cc(-c3ncc4c(N5CC6CCC(C5)N6)nc(OCC56CCCN5CC(F)C6)nc4c3F)c12
Result: 114

Request: Any idea what its viability, T/C is? The compound is C=CC(=O)N1CCN(c2nc(OCC3CCCN3C)nc3c(F)c(-c4nc(N)cc(C)c4C(F)(F)F)c(Cl)cc23)C(C)C1 (stereo unspecified) + C#Cc1c(F)ccc2cc(O)cc(-c3ncc4c(N5CC6CCC(C5)N6)nc(OCC56CCCN5CC(F)C6)nc4c3F)c12
Result: 105

Value source: PubChem BioAssay AID2060897
